src = the supplement of paper PMC9170038

tested on: K4 kissing-loop RNA reporter; assay: apparent KD of K4 kissing-loop reporter; higher = weaker reporter binding; conditions: Eterna round: R107; input ligand: tryptophan 2.4 mM;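 further: bound reporter read as fluorescence of individual clusters on recovered sequencing chips by microscopy, with normalized cluster intensities fitted with a binding model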
Metric Name: apparent KD of K4 kissing-loop reporter (nM)
Please state the figure in nM; there is no need to write the unit.

# query: apparent KD of K4 kissing-loop reporter of entry CGCCGUAAGGCGGUCGCUCCCACUCCGGAAGGAGCGCCCGUAAGGGCAGGUAGGUCGCCGGAGUGAUGUUCCGGUGGAGGGACCG [#2 Exclusion - Arginine A Attempt #8 (Inspired by Omei)]
330

# query: apparent KD of K4 kissing-loop reporter of entry GCAGUGAUGUUGCAACCGCGUACGAUGCCUCGAGGACCGGUACGGCCGCCACUCGUCCUGGUUCAGGAGCUACAGACAUAGCUCA [theeternabot_sameState_KL_Trp_A_2]
291

# query: apparent KD of K4 kissing-loop reporter of entry AAAUUCUUUUUUUUAUUUAACUUUUCAGAAGGAGCGUGGUAGUACACAGGUAGGUCGCUGAAUUUUGGACUAGUGAUGUUAGUUA [JR_SSArginiA_Sub007]
153

# query: apparent KD of K4 kissing-loop reporter of entry GAGGUACAGGCGGCCGCCACUAGUGAUGUUAGUGAUAAAAGAUAUAGUAAAUAUCGGCAUGUAGAUAGGACCGGGCCUGAUGGAG [ptvcmullin]
209

# query: apparent KD of K4 kissing-loop reporter of entry AGCUCAGAGUGACUCGAUAAGAGUCACAAACGAGGACCGGUACGGCCGCCACUCGAAAUAACGAGAGUGAUGUUCUCGCUGGGCA [FiskerMod 1 - Jieux - Same State Tryptophan A]
296

# query: apparent KD of K4 kissing-loop reporter of entry AAAUUUAAUAUAUUUAAUUAAUUAUGUGAUACCAGACAUUUAUAAGUCCCUUGGCAGCACUUUGCAGUGAUGUUGCAUAUAAUAA [JR_SSTheophyA_Sub013]
99.2

# query: apparent KD of K4 kissing-loop reporter of entry CCUGAUCCUAGUGAUGUUAGGUCCAACGGCCGAGGACCGGUACGGCCGCCACUCGUCAAUUGGAAACAGCCCACGGGCACCGGGU [theeternabot_sameState_KL_Trp_A_19]
783

# query: apparent KD of K4 kissing-loop reporter of entry AGUGAUGUGGGAAGGAGCGCUAGUACACUUCAGUGAUGUUGAAGUGAUGAAUUAGUGUAUUGGCAGGUAGGUCGCCUAGAUGUUA [KL-XARG-B14]
72.5

# query: apparent KD of K4 kissing-loop reporter of entry AUAUAGAGUGAUGUUCAUGAGUAUUUCGAAGGAGCGCUAAAUAAGGCAGGUAGGUCGCGGAAAAUAUAUAUAUAGAUAUAUAUAU [KL-SSArg-A29]
280

# query: apparent KD of K4 kissing-loop reporter of entry ACGAUUUACAGAAGGAGCGUGUAUUUAACUACAAUUAUCUUAGCGAGUGAUGUUCGUUUUACACAGGUAGGUCGCUGUAUAUCGA [JR_ExcArginiB_Sub011]
220

# query: apparent KD of K4 kissing-loop reporter of entry AUUCAUUUCAGAGGAUAUCGAUGGAGAGUGAUGUUCUCCCAUAGCCAGUGAUGUUGGCUAGCUAUUCGAGAAGGCUGUGGGUGGA [Same State FMN B GF 27]
208

# query: apparent KD of K4 kissing-loop reporter of entry CCACCAAGCACGGCCGCCACUAAAUCUGCAAGUAACCUAAAGUGAUGUUUUAUCUUGCGUCAGACUAGGACCGGGUGUCAAGUUA [theeternabot_sameState_KL_Trp_B_45]
755

# query: apparent KD of K4 kissing-loop reporter of entry UGGCGUAGAACCGCCGAAUCGCUGUGAGAAGGAGCGGUAAAAUUGCCAGGUAGGUCGCUCACAGCCUCACAGUGAUGUUGUGGGA [Cequralaza]
212

----------
test system: MS2 coat protein; assay: apparent KD of MS2 coat protein; designed switch direction (-1 OFF switch, 1 ON switch): -1; higher = weaker reporter binding; settings: Eterna round: R95; input ligand: none
Metric Name: apparent KD of MS2 coat protein (nM)
Please state the figure in nM; there is no need to write the unit.

Report apparent KD of MS2 coat protein for AAAUACAAGCAGAGAUCCUACAUGAGGAUCACCCAUGUGCUCGUCUUAUAAAGUACUAUCACGAAAGUGAUAGUACA [Sensor 3, v1 - 17] (puzzle: Sensor v3, turn-off variant 1) tested on MS2 coat protein.
218

Report apparent KD of MS2 coat protein for UUAUACGCUGAGGAUAUCUUCACUAAAGUGUGAAGAGAAGGCGGUACAUGAGGAUCACCCAUGUCUAUGGGCAG [Ex-6 Malc#18] (puzzle: Exclusion 6) tested on MS2 coat protein.
282

Report apparent KD of MS2 coat protein for GGAUCGAGUGUGAGGAUAUGCUGGUCCUUGGAUCAGCAGAAGGCACAUGAGGAUCACCCAUGUGGAGACGGUCC [JL bmx4 3.17] (puzzle: Brourd's mod of Exclusion 4) tested on MS2 coat protein.
102

Report apparent KD of MS2 coat protein for GAUUAUGCGAGCUUUAGGGACAUGAGGAUCACCCAUGUUCGUCUUAUUGGUCUAAGUGCACUAACAUACCUAAAUCU [JMF 30] (puzzle: Sensor v3, turn-off variant 1) tested on MS2 coat protein.
20

Report apparent KD of MS2 coat protein for UUUAAUUUUUUUUUUUUACAAGCUUUUUGCUCGUCUUAUACAUGAGGAUCACCCAUGUAAGUGGGAAGUAAAUUAUC [JMF 54] (puzzle: Sensor v3, turn-off variant 2) tested on MS2 coat protein.
83.8

Report apparent KD of MS2 coat protein for UUUAAUUUUUUUUUUUUACAAGCUUUUUGCUCGUCUUAUACAUGAGGAUCACCCAUGUGGGUAAAGGAUAAAUUAUC [JMF 25] (puzzle: Sensor v3, turn-off variant 2) tested on MS2 coat protein.
34.1

Report apparent KD of MS2 coat protein for AAGUACCGUCACGAUAGUGAUGGUACAACAGGUAAAUGUACAUGAGGAUCACCCAUGUCCUCUUUUGCUCGUCUUAU [Sensor 3 - 93] (puzzle: Sensor v3, turn-off variant 2) tested on MS2 coat protein.
160

----------
system: MS2 coat protein; assay: apparent KD of MS2 coat protein; designed switch direction (-1 OFF switch, 1 ON switch): -1; higher = weaker reporter binding; conditions: Eterna round: R95; input ligand: microRNA oligo, concentration not stated
Please provide measured apparent KD of MS2 coat protein for the entries that follow.
Please state the figure in nM; there is no need to write the unit.

# query: apparent KD of MS2 coat protein of entry UAUUUACGAGGAUAUCGUUUUUUUCACAUGAGGAUCACCCAUGUUGUUUAUGUUGCGUUGCGAGAAGGCGUUUGUU [JR_E5_Sub062] (puzzle: Exclusion 5)
26.6

# query: apparent KD of MS2 coat protein of entry AAUUCACAUGAGGAUCACCCAUGUCAGGAUAUGGUGACGCGGGUUUCGGUGCGUGUUGCCAGAAGGGACAGCUA (puzzle: Exclusion 1)
81.3

# query: apparent KD of MS2 coat protein of entry CCAGCGUGUGUGAGGAUAUGCUGGUCCUUGGAUCAGCAGAAGGCACAUGAGGAUCACCCAUGUGAGUACGUUGG [JL bmx4 3.34] (puzzle: Brourd's mod of Exclusion 4)
15

# query: apparent KD of MS2 coat protein of entry AAAGAAGAGAGAAAAUAACACAUGAGGAUCACCCAUGUGCGAUGUUGAGGGUGAUACAGGCUUUUUGCUCGUCUUAU (puzzle: Sensor v3, turn-off variant 1)
512

# query: apparent KD of MS2 coat protein of entry GAGUGCUGAGGAUAUACAUGAGGAUCACCCAUGUGCUUCAGCUAGGAGACUAGCAUUGGUAGAAGGCAGUACUC [LRO-Excl3-01] (puzzle: Exclusion 3)
11.1

# query: apparent KD of MS2 coat protein of entry UUAUUAAGUGUGAGGAUAUGCUGGUCCUUGGAUCAGCAGAAGGCACAUGAGGAUCACCCAUGUACAAUAUAUUA [Mat - Exclusion 4 - JL Mod - D30] (puzzle: Brourd's mod of Exclusion 4)
38.7

----------
tested on: MS2 coat protein; assay: apparent KD of MS2 coat protein; designed switch direction (-1 OFF switch, 1 ON switch): -1; higher = weaker reporter binding; conditions: Eterna round: R95; input ligand: FMN 200 uM
Please provide measured apparent KD of MS2 coat protein for the entries that follow.

# query: apparent KD of MS2 coat protein of entry AGAAAUGCCCGUGACCACAAGCUUUUUGCUUGUCUUACUACAUGAGGAUCACCCAUGUAACAUGGGCUCCUGACAAU [Maleisar] (puzzle: Sensor v3, turn-off variant 2)
14.7 nM

# query: apparent KD of MS2 coat protein of entry GGUUGGCGAGGAUAUACAUGAGGAUCACCCAUGUGAGAGAAUAAAGUGAGGAAGAAAAGUAGAAGGCGCUGACG [salish99_ex3_r3_013] (puzzle: Exclusion 3)
1030 nM

# query: apparent KD of MS2 coat protein of entry GGAAAACAUGAGGAUCACCCAUGUAAGGAUAUGCAAAAGGAUAUAGAAGGAAUAAAAAGCAGAAGGUACAAAGG [salish99-ex1_r3_096] (puzzle: Exclusion 1)
116 nM

# query: apparent KD of MS2 coat protein of entry CCGAGGUGGCGGUCCUAUGACAUGAGGAUCACCCAUGUACCUCGCCACAAGCUCUUUGCUCAUCUUAUAGUUCUCGG [Onlaor] (puzzle: Sensor v3, turn-off variant 1)
18.6 nM

# query: apparent KD of MS2 coat protein of entry GAGUGACAUGAGGAUCACCCAUGUAAGGAUAUACGGUUGGUAGAGAGAGGGAAAAGAGGUAGAAGGUACGAAGG [JR_Exclu1_Sub056] (puzzle: Exclusion 1)
43.9 nM

# query: apparent KD of MS2 coat protein of entry GGGAAACAUGAGGAUCACCCAUGUGAGGAUAUGAAAAAGAAAAGAAAAGAAAGAAGAAUCAGAAGGCACAAAGG [salish99-ex1_r3_079] (puzzle: Exclusion 1)
75.5 nM
